Quick reference: inhibition at 0.2 µM of the listed items.
Molecular target: canine TRPM8 (Canis lupus familiaris, UniProt Q1A7N1)
Construct: expressed in transfected cells
Sequence (Q1A7N1 1-1104): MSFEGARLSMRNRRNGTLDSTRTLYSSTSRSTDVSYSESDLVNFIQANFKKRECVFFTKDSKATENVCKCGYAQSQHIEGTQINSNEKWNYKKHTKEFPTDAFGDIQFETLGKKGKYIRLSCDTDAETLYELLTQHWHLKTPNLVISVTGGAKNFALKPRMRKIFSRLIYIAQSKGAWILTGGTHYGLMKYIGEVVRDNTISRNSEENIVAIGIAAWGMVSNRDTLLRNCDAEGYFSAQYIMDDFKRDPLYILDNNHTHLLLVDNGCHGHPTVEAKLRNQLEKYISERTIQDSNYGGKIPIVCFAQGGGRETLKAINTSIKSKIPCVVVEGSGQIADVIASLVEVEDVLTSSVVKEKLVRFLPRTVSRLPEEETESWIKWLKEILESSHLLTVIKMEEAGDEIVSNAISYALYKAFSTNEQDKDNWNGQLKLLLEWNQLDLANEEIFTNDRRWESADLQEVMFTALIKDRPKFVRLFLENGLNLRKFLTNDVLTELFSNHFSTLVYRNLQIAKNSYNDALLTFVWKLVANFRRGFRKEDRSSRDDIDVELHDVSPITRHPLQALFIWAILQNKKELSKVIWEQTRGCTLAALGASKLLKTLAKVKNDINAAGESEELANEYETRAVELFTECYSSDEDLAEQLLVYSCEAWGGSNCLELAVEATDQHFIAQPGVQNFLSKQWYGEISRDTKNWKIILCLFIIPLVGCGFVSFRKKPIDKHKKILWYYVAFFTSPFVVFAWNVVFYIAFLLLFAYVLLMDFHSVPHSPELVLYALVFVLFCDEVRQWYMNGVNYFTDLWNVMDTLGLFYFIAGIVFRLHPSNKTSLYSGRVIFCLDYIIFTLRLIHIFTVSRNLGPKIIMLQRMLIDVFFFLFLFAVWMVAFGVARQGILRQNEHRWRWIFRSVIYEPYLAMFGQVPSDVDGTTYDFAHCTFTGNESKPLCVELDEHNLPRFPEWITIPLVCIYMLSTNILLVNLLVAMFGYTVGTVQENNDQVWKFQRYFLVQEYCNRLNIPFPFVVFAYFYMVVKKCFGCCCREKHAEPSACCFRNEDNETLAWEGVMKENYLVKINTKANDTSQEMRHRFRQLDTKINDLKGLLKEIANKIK
Experiment: In Vitro Canine TRPM8 Functional Assay (intracellular Ca2+ fluorescence, icilin activation, HEK293 cells)
Assay type: cell-based
Conditions: HEK293, read-out: % Inh (%) @0.2 μM, in vitro TRP M8 Activity, 0.2 μM test compound; individually measured values
Structures can show the parent of a compound that is named as a salt.
Numbers only here, please. The scale is %.

Cn1nc(C(C)(C)C)c(Cl)c1-c1nc2cc(-c3c(F)cccc3C(F)(F)F)cc(C(F)(F)F)c2[nH]1 [Compound 125, sodium salt] ... 100
CC(C)(C)c1cc(-c2nc3cc(-c4ccccc4C(F)(F)F)cc(C(F)(F)F)c3[nH]2)on1 [Compound 142, sodium salt] ... 99

Name the recorded inhibition at 0.2 µM of the compound listed here: CC(C)(C)c1cc(-c2nc3cc(-c4ccccc4F)cc(C(F)(F)F)c3[nH]2)on1 [Compound 139, sodium salt]
99
